Biological target: h-NK1 receptors (Homo sapiens, UniProt P25103)
Construct: expressed in transfected cells; host or cells: CHO cells (permanent expression), crude cell membranes
Sequence (P25103 whole entry): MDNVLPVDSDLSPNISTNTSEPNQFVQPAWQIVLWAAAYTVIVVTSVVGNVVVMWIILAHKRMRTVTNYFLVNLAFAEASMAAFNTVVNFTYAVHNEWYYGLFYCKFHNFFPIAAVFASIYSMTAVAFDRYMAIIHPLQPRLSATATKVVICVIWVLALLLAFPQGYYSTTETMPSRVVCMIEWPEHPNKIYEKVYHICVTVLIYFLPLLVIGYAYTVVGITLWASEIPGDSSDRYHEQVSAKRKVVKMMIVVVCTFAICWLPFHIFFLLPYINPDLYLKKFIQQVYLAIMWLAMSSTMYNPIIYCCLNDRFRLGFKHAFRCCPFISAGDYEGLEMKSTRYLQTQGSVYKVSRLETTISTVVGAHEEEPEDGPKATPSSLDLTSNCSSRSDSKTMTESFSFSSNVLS
Assay: Evaluation of NK1 antagonist transport efficiency to the central nervous system using a h-NK1 receptor binding assay (brain extract after i.v. dosing of rats)
Conditions: 5 min; compound extracted from brain of male SD rats 5 min after i.v. injection at the dose of 1 mg/kg; CHO cell membranes expressing h-NK1; read-out: inhibition rate of 125I-BH-Substance P binding to h-NK1 receptors
Where a name gives a salt, the structure may show the parent alone.
Consider the following compounds and their measured inhibition at 1 mg/kg readings.

compound: COC[C@@H]1CN(CC#CCN2CCN(C(=O)c3cc(C(F)(F)F)cc(C(F)(F)F)c3)[C@H](Cc3ccc(C)c(C)c3)C2)CCO1.Cl.Cl [71-(5), dihydrochloride]
inhibition at 1 mg/kg: > 80%
//
compound: Cc1ccc(C[C@@H]2CN(CCN3CCOC[C@@H]3CF)CCN2C(=O)c2cc(C(F)(F)F)cc(C(F)(F)F)c2)cc1C.Cl.Cl [81-(1), dihydrochloride]
inhibition at 1 mg/kg: > 80%
//
compound: Cc1ccc(C[C@@H]2CN(CC#CCN3CCOC[C@@H]3CF)CCN2C(=O)c2cc(C(F)(F)F)cc(C(F)(F)F)c2)cc1C [70-(1), dihydrochloride]
inhibition at 1 mg/kg: > 80%

----------
Where a name gives a salt, the structure may show the parent alone.
# melting point values compiled below
property: melting point

compound: Cl.Cl.O=C(c1cc(C(F)(F)F)cc(C(F)(F)F)c1)N1CCN(CC#Cc2cccnc2)C[C@H]1Cc1ccc2ccccc2c1
assay-result: 140 to 150 °C
--
compound: Cl.Cl.O=C(c1cc(C(F)(F)F)cc(C(F)(F)F)c1)N1CCN(C/C=C\c2cccnc2)C[C@H]1Cc1ccc2ccccc2c1
assay-result: 130 to 150 °C
--
compound: COc1ccc(CCCN2CCN(C(=O)c3cc(C(F)(F)F)cc(C(F)(F)F)c3)[C@H](Cc3c[nH]c4ccccc34)C2)cn1.Cl.Cl
assay-result: 195 to 200 °C
--
compound: Cl.Cl.O=C(c1cc(Cl)cc(Cl)c1)N1CCN(CC#CCN2CCSCC2)C[C@H]1Cc1ccc(C(F)(F)F)cc1
assay-result: 172 °C (dec.)
--
compound: Cc1ccc(C[C@@H]2CN(CC#CCN3CCSCC3)CCN2C(=O)c2cc(Cl)cc(Cl)c2)cc1C.Cl.Cl
assay-result: 128 °C (dec.)
--
compound: COC[C@H]1COCCN1C/C=C/CN1CCN(C(=O)c2cc(C(F)(F)F)cc(C(F)(F)F)c2)[C@H](Cc2ccc(C)c(C)c2)C1.Cl.Cl
assay-result: 130 to 140 °C
--
compound: COC[C@H]1COCCN1CCCN1CCN(C(=O)c2cc(C(F)(F)F)cc(C(F)(F)F)c2)[C@H](Cc2ccc(C)c(C)c2)C1.Cl.Cl
assay-result: 55 to 60 °C
--
compound: Cc1ccc(C[C@@H]2CN(CCN3CCOC[C@@H]3CF)CCN2C(=O)c2cc(C(F)(F)F)cc(C(F)(F)F)c2)cc1C.Cl.Cl
assay-result: 145 to 155 °C
--
compound: Cc1ccc(C[C@@H]2CN(Cc3cnn(CCN4CCOCC4)c3)CCN2C(=O)c2cc(C(F)(F)F)cc(C(F)(F)F)c2)cc1C.Cl.Cl
assay-result: 115 to 116 °C
--
compound: COC[C@H]1CN(CCN2CCN(C(=O)c3cc(C(F)(F)F)cc(C(F)(F)F)c3)[C@H](Cc3ccc(C)c(C)c3)C2)CCO1.Cl.Cl
assay-result: 160 to 170 °C
--
compound: Cl.Cl.O=C(c1cc(C(F)(F)F)cc(C(F)(F)F)c1)N1CCN(CCCc2cccnc2)C[C@H]1Cc1c[nH]c2ccccc12
assay-result: 150 to 160 °C
--
compound: CNc1cccc(CC2CN(CC#CCN3CCOCC3(C)C)CCN2C(=O)c2cc(C(F)(F)F)cc(C(F)(F)F)c2)c1 (centres unmarked) (as salt: hydrochloride)
assay-result: 192 to 195 °C
--
compound: COc1ccncc1CCCN1CCN(C(=O)c2cc(C(F)(F)F)cc(C(F)(F)F)c2)[C@H](Cc2ccc(C)c(C)c2)C1.Cl.Cl
assay-result: 159 to 168 °C
--
compound: CC1(C)COCCN1CCN1CCN(C(=O)c2cc(C(F)(F)F)cc(C(F)(F)F)c2)[C@H](Cc2c[nH]c3ccccc23)C1.Cl.Cl
assay-result: 247 to 258 °C
